- assayed target: human α7V274T nAChR (Homo sapiens, UniProt P36544, V274T)
- Construct: This created a new cDNA encoding a full length α7 subunit; expressed in transfected cells
- assay name: Agonist concentration-response, two-electrode voltage-clamp in Xenopus laevis oocytes
- Format: cell-based
- measurement context: peak amplitude normalized to ACh response; Hill equation fit; holding potential −60 mV
reported property: pEC50
pEC50 here is simply -log10 of the concentration when that concentration is written in mol/L.

Requested field: pEC50. Item: COc1ccc(/C=C2\CCCN=C2c2cccnc2)c(OC)c1 [GTS-21]
5.37
